Reference source: paper PMC9929129

assay: In vivo PK study, IP, SC and PO; conditions: male, CD-1, mouse, plasma, ip, 20 mg/kg
OUTCOME MEASURE: AUC(0-t) (µg·h/mL)
Number only, in µg·h/mL; omit the unit.

Query block: Which value of AUC(0-t) has been reported for CC(C)Oc1ccc(-c2ncc(CNc3ccnc(C(F)(F)F)c3)cn2)cc1Cl [Compound 24] in the records?
Result block: 557

====

target: Nav1.5 human sodium ion channel (Homo sapiens, UniProt Q14524); construct: Eurofins CYL8004QP2DR; experiment: Nav1.5 automated patch clamp CiPA assay (Eurofins)
Sequence (Q14524 whole entry): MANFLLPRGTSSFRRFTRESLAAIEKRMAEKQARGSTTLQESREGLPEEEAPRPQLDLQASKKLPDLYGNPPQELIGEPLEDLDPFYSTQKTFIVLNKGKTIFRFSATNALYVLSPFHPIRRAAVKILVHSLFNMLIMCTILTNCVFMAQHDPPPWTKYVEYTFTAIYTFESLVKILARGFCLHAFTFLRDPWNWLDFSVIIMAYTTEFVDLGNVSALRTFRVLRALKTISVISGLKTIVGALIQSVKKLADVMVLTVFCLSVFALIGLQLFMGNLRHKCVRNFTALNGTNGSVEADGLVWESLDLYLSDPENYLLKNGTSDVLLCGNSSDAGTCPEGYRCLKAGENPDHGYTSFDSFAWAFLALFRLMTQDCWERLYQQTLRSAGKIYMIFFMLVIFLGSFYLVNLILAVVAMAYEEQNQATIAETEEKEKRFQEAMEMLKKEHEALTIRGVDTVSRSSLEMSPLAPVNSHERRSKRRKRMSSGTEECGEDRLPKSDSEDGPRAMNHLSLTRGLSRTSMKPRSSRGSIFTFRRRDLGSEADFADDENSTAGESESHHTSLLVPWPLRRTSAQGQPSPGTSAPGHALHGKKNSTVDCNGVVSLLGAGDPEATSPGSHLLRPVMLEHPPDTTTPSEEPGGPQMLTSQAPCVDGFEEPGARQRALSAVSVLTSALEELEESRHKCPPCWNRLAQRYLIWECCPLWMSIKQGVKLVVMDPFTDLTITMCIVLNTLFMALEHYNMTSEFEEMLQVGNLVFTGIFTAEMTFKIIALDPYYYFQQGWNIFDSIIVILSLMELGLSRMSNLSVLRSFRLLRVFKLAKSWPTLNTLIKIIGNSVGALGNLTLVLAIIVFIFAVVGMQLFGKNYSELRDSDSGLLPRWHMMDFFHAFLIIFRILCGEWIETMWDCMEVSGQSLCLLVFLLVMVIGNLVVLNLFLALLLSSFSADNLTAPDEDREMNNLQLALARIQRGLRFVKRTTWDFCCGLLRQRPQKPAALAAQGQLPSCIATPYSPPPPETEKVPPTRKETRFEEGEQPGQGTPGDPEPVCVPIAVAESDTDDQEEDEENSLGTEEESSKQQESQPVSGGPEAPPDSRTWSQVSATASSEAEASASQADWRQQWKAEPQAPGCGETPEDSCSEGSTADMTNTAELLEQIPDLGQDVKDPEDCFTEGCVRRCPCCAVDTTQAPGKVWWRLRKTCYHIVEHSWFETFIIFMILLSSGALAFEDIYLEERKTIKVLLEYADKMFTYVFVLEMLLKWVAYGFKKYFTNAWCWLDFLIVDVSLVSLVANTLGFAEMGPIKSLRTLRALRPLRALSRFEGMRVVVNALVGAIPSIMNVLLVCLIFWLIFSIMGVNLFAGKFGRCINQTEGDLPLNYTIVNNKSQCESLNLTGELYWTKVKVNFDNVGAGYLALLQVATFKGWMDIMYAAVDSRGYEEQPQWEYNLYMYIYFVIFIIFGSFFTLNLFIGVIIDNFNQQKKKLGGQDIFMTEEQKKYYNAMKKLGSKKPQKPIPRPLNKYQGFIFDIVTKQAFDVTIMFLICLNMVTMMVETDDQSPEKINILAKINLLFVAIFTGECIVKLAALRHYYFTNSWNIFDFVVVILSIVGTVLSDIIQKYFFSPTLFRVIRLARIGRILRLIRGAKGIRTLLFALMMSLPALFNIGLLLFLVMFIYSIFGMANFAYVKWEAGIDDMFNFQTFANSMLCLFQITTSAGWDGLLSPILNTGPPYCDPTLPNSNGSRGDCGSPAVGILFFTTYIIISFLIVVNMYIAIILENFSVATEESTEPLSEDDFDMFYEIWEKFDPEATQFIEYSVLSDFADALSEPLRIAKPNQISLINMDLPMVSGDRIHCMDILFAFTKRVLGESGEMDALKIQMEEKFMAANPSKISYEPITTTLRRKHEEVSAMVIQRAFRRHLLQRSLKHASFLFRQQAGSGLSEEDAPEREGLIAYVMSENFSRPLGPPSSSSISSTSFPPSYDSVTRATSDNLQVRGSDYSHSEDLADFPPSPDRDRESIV
OUTCOME MEASURE: IC50

Query block: Which value of IC50 has been reported for CC(C)Oc1ccc(-c2ncc(CNc3ccnc(C(F)(F)F)c3)cn2)cc1Cl in the records?
Result block: > 30 µM

====

Target: CYP1A (Homo sapiens)
Sequence (P05177 2-516): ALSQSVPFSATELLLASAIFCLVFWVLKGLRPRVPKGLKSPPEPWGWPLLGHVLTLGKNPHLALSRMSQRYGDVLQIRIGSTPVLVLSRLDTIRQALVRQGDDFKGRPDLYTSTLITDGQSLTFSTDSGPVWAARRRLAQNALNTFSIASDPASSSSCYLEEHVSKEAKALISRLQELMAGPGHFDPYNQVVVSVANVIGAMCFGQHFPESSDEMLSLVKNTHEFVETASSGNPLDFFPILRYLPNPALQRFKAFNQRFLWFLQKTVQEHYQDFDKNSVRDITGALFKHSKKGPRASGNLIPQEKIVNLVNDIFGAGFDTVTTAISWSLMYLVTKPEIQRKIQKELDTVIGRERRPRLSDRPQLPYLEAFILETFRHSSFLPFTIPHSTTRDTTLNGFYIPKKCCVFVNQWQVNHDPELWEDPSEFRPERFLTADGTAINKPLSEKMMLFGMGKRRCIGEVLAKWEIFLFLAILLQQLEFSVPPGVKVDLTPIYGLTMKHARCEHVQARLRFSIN
Test: Cytochrome P450 inhibition assay, CYP1A
Assay type: in vitro ADME
Description: 1.4.4 Pharmacokinetic and off-target functional assays (Cyprotex) Compound 24 was assayed at Cyprotex in functional assays for interference with important off-targets as well as important pharmacokinetic parameters. With the exception of plasma protein binding, a dose-response relationship was studied in order to calculate IC50 values. Table S10. Information on in vitro ADMET assays performed at Cyprotex. […]
pIC50: −log10 of the molar value.
OUTCOME MEASURE: pIC50

Query block: Which value of pIC50 has been reported for CC(C)Oc1ccc(-c2ncc(CNc3ccnc(C(F)(F)F)c3)cn2)cc1Cl in the records?
Result block: < 4.60

====

Molecular target: P2X4 receptor (Homo sapiens, UniProt Q99571)
Sequence (Q99571 whole entry): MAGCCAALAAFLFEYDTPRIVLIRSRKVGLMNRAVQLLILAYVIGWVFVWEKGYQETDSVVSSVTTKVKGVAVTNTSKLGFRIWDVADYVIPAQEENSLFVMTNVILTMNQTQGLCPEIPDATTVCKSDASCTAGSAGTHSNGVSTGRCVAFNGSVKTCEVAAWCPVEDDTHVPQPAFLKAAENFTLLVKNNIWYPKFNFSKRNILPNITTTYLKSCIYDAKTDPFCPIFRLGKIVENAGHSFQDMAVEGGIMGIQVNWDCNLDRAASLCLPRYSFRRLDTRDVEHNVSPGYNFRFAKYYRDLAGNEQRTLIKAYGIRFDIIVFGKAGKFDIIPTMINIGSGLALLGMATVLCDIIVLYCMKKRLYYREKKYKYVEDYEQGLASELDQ
Experiment: Ion channel profiling at Charles River: P2X4
Settings: expressed in HEK293 cells; read-out: ESTIMATED IC50
Method: 1.4.3 Ion Channel Profiling at Charles River Table S9. Compound 24 was tested against the following ion channels at Charles River Laboratories. […] FLIPR Assay expressed in HEK293 cells GABAA α5/β3/γ2 ionotropic receptor (human GABRA5, GABRB3, >30 and GABRG2 genes, expressed in HEK293 cells P2X4 receptor (human P2RX4 gene) expressed in HEK293 cells >30 […]
OUTCOME MEASURE: IC50

Query block: Which value of IC50 has been reported for CC(C)Oc1ccc(-c2ncc(CNc3ccnc(C(F)(F)F)c3)cn2)cc1Cl in the records?
Result block: > 30 µM

====

assay: In vivo PK study, IP, SC and PO; conditions: male, CD-1, mouse, plasma, sc, 20 mg/kg
OUTCOME MEASURE: bioavailability (%)
Number only, in %; omit the unit.

Query block: Which value of bioavailability has been reported for CC(C)Oc1ccc(-c2ncc(CNc3ccnc(C(F)(F)F)c3)cn2)cc1Cl in the records?
Result block: 23.5

====

target: CYP2C19 (Homo sapiens, UniProt P33261)
Sequence (P33261 whole entry): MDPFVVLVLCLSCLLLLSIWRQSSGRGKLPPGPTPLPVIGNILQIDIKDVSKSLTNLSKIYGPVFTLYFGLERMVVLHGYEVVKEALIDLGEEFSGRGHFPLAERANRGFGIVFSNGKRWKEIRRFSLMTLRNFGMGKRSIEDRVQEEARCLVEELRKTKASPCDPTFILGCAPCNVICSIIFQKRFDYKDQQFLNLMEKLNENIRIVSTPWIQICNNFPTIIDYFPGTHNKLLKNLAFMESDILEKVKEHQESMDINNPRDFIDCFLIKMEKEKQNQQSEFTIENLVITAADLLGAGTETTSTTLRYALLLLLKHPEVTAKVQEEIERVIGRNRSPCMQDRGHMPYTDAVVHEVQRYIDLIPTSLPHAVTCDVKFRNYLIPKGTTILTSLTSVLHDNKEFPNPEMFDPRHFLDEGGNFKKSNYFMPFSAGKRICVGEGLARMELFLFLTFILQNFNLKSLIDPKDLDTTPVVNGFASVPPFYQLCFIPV
OUTCOME MEASURE: IC50

Query block: Recall the recorded IC50 for CC(C)Oc1ccc(-c2ncc(CNc3ccnc(C(F)(F)F)c3)cn2)cc1Cl with CYP2C19 (Homo sapiens, UniProt P33261) and state it.
Result block: > 25 µM

====

experiment: In vivo PK study, intratracheal (IT) and intravenous (IV); details: male, CD1, mouse, in vivo, inhaled or intranasal, […]
OUTCOME MEASURE: Vd/F (L/kg)
Number only, in L/kg; omit the unit.

Query block: Which value of Vd/F has been reported for CC(C)Oc1ccc(-c2ncc(CNc3ccnc(C(F)(F)F)c3)cn2)cc1Cl [Compound 24] in the records?
Result block: 0.06
